Each recorded value in this set is attributed to the RNAGym collection of RNA variant scans (doi:10.1093/molbev/msab373).

B1: Azoarcus group I ribozyme (parent)
chain: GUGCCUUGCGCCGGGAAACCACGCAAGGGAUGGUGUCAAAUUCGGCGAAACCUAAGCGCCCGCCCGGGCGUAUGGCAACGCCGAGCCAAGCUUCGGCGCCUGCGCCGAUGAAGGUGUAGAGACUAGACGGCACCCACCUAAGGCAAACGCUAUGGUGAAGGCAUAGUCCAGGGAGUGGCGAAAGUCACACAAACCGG

Variants of: B1
procedure details: reverse-splicing fitness (ratio to wild type); higher = more active; in vitro selection; Mg2+ level not given
Dear colleague, classification is by reverse-splicing fitness, with ranges listed here: bucket A = under 0.005, bucket B = from 0.005 up to 0.01, bucket C = 0.01 and over

Field: example entries. Status: answers known.
1. C82A A111G A120G A145G C150G C169A U176C ... bucket C
2. C82G A111C A120U A145C C169U U176C ... bucket A
3. C82U A120G A145U C150A C169G U176G ... bucket A
4. C82G A111C A120U A145C C150G C169G U176G ... bucket A

Would you mind sorting C82A A120G A145C C150G C169A U176C into the appropriate category? bucket B

Would you mind sorting C82U A111G A120C A145G C150G C169A into the appropriate category? bucket B

Would you mind sorting C82A A111U A120U A145C C150A into the appropriate category? bucket B

Would you mind sorting C82G A111G A145U C169U U176C into the appropriate category? bucket C

Would you mind sorting C82U A111C A145U C150A C169G U176C into the appropriate category? bucket C

Would you mind sorting C82G A111C A120U A145U C150A into the appropriate category? bucket B

Would you mind sorting C82G A111U A120U A145U C150G into the appropriate category? bucket B

Would you mind sorting C82A A111G C169G U176G into the appropriate category? bucket B

Would you mind sorting A111G A120G A145C C150A into the appropriate category? bucket C

Would you mind sorting A120U A145G C169A U176G into the appropriate category? bucket A
